PROPERTY: melting point

Dear colleague, I am looking for the recorded melting point of the following compound: CS(=O)c1ccc(OCc2ccccc2)c(C=O)c1 (stereo unspecified) 103 to 104 °C

Dear colleague, I am looking for the recorded melting point of the following compound: Cc1c(NC(=O)CC(C)(C)C)c(C)c2c(c1-c1cccc(N3CCCC3)c1)OCC2c1ccc(C(C)C)cc1 (stereo unspecified) 206 to 207 °C

Dear colleague, I am looking for the recorded melting point of the following compound: N#Cc1c(Br)c(Br)n(C(=O)c2ccc(Cl)cc2)c1Br 154 to 157 °C

Dear colleague, I am looking for the recorded melting point of the following compound: CC12CCC(C1)C(C)(C)C2(CCO)SN=O (stereo unspecified) 81 to 85 °C

Dear colleague, I am looking for the recorded melting point of the following compound: O=C1NC(=O)C(=Cc2ccc(SCCc3ccccc3)cc2)S1 182 to 183 °C

Dear colleague, I am looking for the recorded melting point of the following compound: NS(=O)(=O)c1ccc(-c2oc3cc(F)ccc3c(=O)c2-c2ccccc2F)cc1 188 °C

Dear colleague, I am looking for the recorded melting point of the following compound: COCCOc1ccc(COC(=O)NS(=O)(=O)CCC(C)C)c(Oc2ncc(C(F)(F)F)cc2Cl)c1 122 to 124 °C

Dear colleague, I am looking for the recorded melting point of the following compound: COc1ccc(C(=O)c2cccc(C(=O)O)c2)c(O)c1 229 to 236 °C

Dear colleague, I am looking for the recorded melting point of the following compound: COc1ccc(-c2cc(=O)c3c(O)cc(OCC4=COC(C)(C)O4)cc3o2)cc1OC 166 °C

Dear colleague, I am looking for the recorded melting point of the following compound: O=C(O)C1CC(c2ccco2)=NN1C(=O)CCS (stereo unspecified) 121 to 123 °C

Dear colleague, I am looking for the recorded melting point of the following compound: Cn1cc(-c2cc3cccnc3[nH]2)c2cc(N)ccc21 247 to 248 °C

---

Provide the reported melting point of each item.

Dear colleague, I am looking for the recorded melting point of the following compound: c1cnc2ccc(Cn3nnc4ccc(-c5ccc6c(c5)CCO6)nc43)cc2c1 131 to 133 °C

Dear colleague, I am looking for the recorded melting point of the following compound: CNS(=O)(=O)c1ccc(C=C2C(C)=C(CC(=O)OC)c3cc(OC)ccc32)cc1 167 to 169 °C

Dear colleague, I am looking for the recorded melting point of the following compound: O=C(CN1CCCC1)Nc1ccc(Br)cc1 60 to 63 °C

---

Provide the reported melting point of each item.
Residues, ends and D or L forms follow the SMILES beside them. *: point of attachment. Tos = Cc1ccc(S(=O)(=O)*)cc1

Dear colleague, I am looking for the recorded melting point of the following compound: N#Cc1ccc2cc(CBr)ccc2c1 134 to 137 °C

Dear colleague, I am looking for the recorded melting point of the following compound: CC(CCCl)=C1SC(=S)N(CC(=O)O)C1=O 205 to 207 °C

Dear colleague, I am looking for the recorded melting point of the following compound: CCc1oc2ccccc2c1C(=O)N(C)Cc1ccc2c(Br)c(O)ccc2c1 176 to 178 °C

Dear colleague, I am looking for the recorded melting point of the following compound: FC(F)(F)c1nnc(S)s1 72 to 73 °C

Dear colleague, I am looking for the recorded melting point of the following compound: Cc1oc(-c2ccccc2)nc1COc1ccc(Cc2nc(-c3ccccc3)c(CCC(=O)O)[nH]2)cc1 193 to 196 °C

Dear colleague, I am looking for the recorded melting point of the following compound: CC(COc1ccc(N2N=C3c4ccccc4SCC3CC2=O)cc1)N(C)C (stereo not drawn) 171 to 173 °C

Dear colleague, I am looking for the recorded melting point of the following compound: N#Cc1nn(-c2c(Cl)cc(C(F)(F)F)cc2Cl)c(Sc2ccccc2)c1SC(F)(F)F 84 to 86 °C

Dear colleague, I am looking for the recorded melting point of the following compound: COC(=O)c1cnc2c3cc(NC(=O)C4CCCCC4)ccc3ncn2c1=O 250 to 251 °C

Dear colleague, I am looking for the recorded melting point of the following compound: O=c1[nH]c2ncc(-c3ccc(-n4ccnn4)cc3)nc2n1CC1CCCCC1 276 to 278 °C

Dear colleague, I am looking for the recorded melting point of the following compound: Fc1cccc(F)c1-c1cnc(-c2ccc(Br)cc2)nn1 167 to 169 °C

Dear colleague, I am looking for the recorded melting point of the following compound: COc1cc(OC)nc(NC(=O)NS(=O)(=O)c2ncccc2C(CCl)OC(C)=O)n1 (stereo not drawn) 159 to 161 °C

Dear colleague, I am looking for the recorded melting point of the following compound: COc1ccc2c(c1)C(NCCCCc1ncc(Br)cc1C)=NS2(=O)=O 161 to 162 °C

Dear colleague, I am looking for the recorded melting point of the following compound: CN1Cc2ccc(OCCCCN3CCN(c4cccc5ccccc45)CC3)nc2NC1=O 180 to 182 °C

Dear colleague, I am looking for the recorded melting point of the following compound: CCN(Cc1ccc(C(=O)O)cc1)c1cc(Br)ccc1OCc1ccccc1 94.5 to 95 °C

Dear colleague, I am looking for the recorded melting point of the following compound: COC(=O)c1cc(-c2ccc(S(C)(=O)=O)cc2)n(C2CCCCC2)n1 108 °C

Dear colleague, I am looking for the recorded melting point of the following compound: CCNC(=O)n1nc(Oc2ccc(F)cc2[N+](=O)[O-])cc1C 81 to 84 °C

Dear colleague, I am looking for the recorded melting point of the following compound: CNC(=C[N+](=O)[O-])NCC(O)COc1cccc(CN2CCCCC2)c1 (stereo not drawn) 45 to 50 °C

Dear colleague, I am looking for the recorded melting point of the following compound: O=C(Cc1ccc2ccn(C3CCN(CCc4ccc(F)cc4)CC3)c2c1)NCCO 140 to 141 °C

Dear colleague, I am looking for the recorded melting point of the following compound: Cc1cn(C2OC(COC(=O)c3ccccc3)C(OC(=O)c3ccccc3)C2OC(=O)c2ccccc2)c(=O)[nH]c1=O (stereo not drawn) 90 °C

Dear colleague, I am looking for the recorded melting point of the following compound: COC(=O)c1ccc2c(c1)c1cc(-c3ccc(C=O)cc3)c(=O)n(C)c1n2C 230 °C

Dear colleague, I am looking for the recorded melting point of the following compound: O=c1cc(-c2ccc(F)cc2)c2c([nH]1)C1CCC(C2)C1 (stereo not drawn) > 300 °C

Dear colleague, I am looking for the recorded melting point of the following compound: CC(=NO)C(C)(C)NCC(F)(F)CNC(C)(C)C(CCn1ccnc1[N+](=O)[O-])=NO 90 to 92 °C

Dear colleague, I am looking for the recorded melting point of the following compound: CS(=O)(=O)c1csc(NC(=O)c2ccccc2O)n1 231 to 235 °C

Dear colleague, I am looking for the recorded melting point of the following compound: OC1(COc2ccccc2Cc2ccccc2)CN2CCC1CC2 (stereo not drawn) 71 to 73 °C

Dear colleague, I am looking for the recorded melting point of the following compound: O=c1[nH][nH]c(=O)c2c(O)c3c(C(F)(F)F)cccc3nc12 180 to 182 °C

Dear colleague, I am looking for the recorded melting point of the following compound: Cc1c(NC(=O)c2ccc(-c3ccc(F)cc3F)cc2)ccc2cc(CN3CCCC3)cnc12 177 to 179 °C

Dear colleague, I am looking for the recorded melting point of the following compound: O=Cc1cc2n(n1)-c1ccc(Cl)cc1C(c1ccccc1)=NC2 170 to 172 °C

Dear colleague, I am looking for the recorded melting point of the following compound: CN(CCOc1ccc(/C=C/CO)cc1F)c1ccccn1 80 to 81 °C

Dear colleague, I am looking for the recorded melting point of the following compound: CN1CCN(c2ncnc3oc(C4=CC=CN(N5CCOCC5)C4)c(-c4ccccc4)c23)CC1 255 to 257 °C

Dear colleague, I am looking for the recorded melting point of the following compound: Cc1ccc(S(=O)(=O)N2CCC[C@H]2C(=O)N[C@@H](C)C(=O)O)cc1 (Tos-Pro-Ala-OH) 160 to 162 °C

Dear colleague, I am looking for the recorded melting point of the following compound: CC12CCCc3cc(N(CC4CC4)c4ncc(C(=O)O)cn4)cc(c31)CCC2 123 to 124 °C

Dear colleague, I am looking for the recorded melting point of the following compound: CCOC(=O)CCc1cc(-c2cc3ccccc3c(=O)o2)ccc1O 179 to 180 °C

Dear colleague, I am looking for the recorded melting point of the following compound: CC(C)c1[nH]nc(C(N)=O)c1[N+](=O)[O-] 179 to 180 °C
